Each entry below lists one item and its recorded pKd value.
target: SNX27, Q96L92; experiment: holdup assay; parameters: key: below the threshold = too weak to quantify, mostly under pKd 3.1 to 4; details: plain residues with an end cap or a label only (N-terminal biotin on a linker: ado-ado)
Answer field: number only, no words.

Given the binder AKADAQESRL [PLCB2, Q00722] , write its reported pKd.
5.21

Given the binder NKSEPFLTWL [WWTR1, Q9GZV5] , write its reported pKd.
5.02

Given the binder LPPPESESKV [KCNJ9, Q92806] , write its reported pKd.
5.43

Given the binder SSSVNVSSNL [CXCR1, P25024] , write its reported pKd.
3.68
